Record form. Attribute: pIC50. Fill in for each entry.
- Test system: CCRF-CEM
- protocol.text: Cell viability assay (DAPI, flow cytometry), CCRF-CEM
- Assay type: cell-based
- settings: Homo sapiens, CCRF-CEM; 48 h; mean ± SEM; N/A: not active
# log scale: pIC50 equals minus log10 of the concentration in mol/L

query: Suppose we examine the molecule C=C(C=O)C1CCC2(C(=O)O)CCC3(C)C(CCC4C5(C)CCC(OC)C(C)(CO)C5CCC43C)C12 (stereo not shown) ; what pIC50 value has been reported?
result: 5.16

query: Suppose we examine the molecule Cc1nc(Nc2ncc(C(=O)Nc3c(C)cccc3Cl)s2)cc(N2CCN(CCO)CC2)n1 [Dasatinib, dasatinib, reference compound] ; what pIC50 value has been reported?
result: 4.97

query: Suppose we examine the molecule C=C(C=O)C1CCC2(C(=O)O)CCC3(C)C(CCC4C5(C)CCC(O)C(C)(CO)C5CCC43C)C12 (stereo not shown) ; what pIC50 value has been reported?
result: 4.75

* * *

- Tested on: leukemia cell lines (CCRF-CEM, REH, JURKAT, MOLT-4, THP-1)
- protocol.text: Cell viability assay, all leukemia cell lines tested (summary statements)
- Type: cell-based
- settings: 48 h; summary over CCRF-CEM, REH, JURKAT, MOLT-4, THP-1; read-out: IC50 across all leukemia cell lines tested
pIC50: −log10 of the molar value.
test.readout: pIC50

query: Suppose we examine the compound C=C(C=O)C1CCC2(C(=O)O)CCC3(C)C(CCC4C5(C)CCC(OC)C(C)(CO)C5CCC43C)C12 (centres unmarked) ; what pIC50 value has been reported?
result: 4.82 to 5.39

query: Suppose we examine the compound C=C(C=O)C1CCC2(C(=O)O)CCC3(C)C(CCC4C5(C)CCC(O)C(C)(CO)C5CCC43C)C12 (centres unmarked) ; what pIC50 value has been reported?
result: 4.60 to 4.89
